- Test system: MHH-PREB-1;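 also: cell viability assay measuring inhibition of proliferation of human MHH-PREB-1 cells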
- experiment notes: cells
- Type: functional, cell-based, Homo sapiens
- measurement setup: Homo sapiens, MHH-PREB-1
- Description: SANGER: Inhibition of human MHH-PREB-1 cell growth in a cell viability assay.
Give measured IC50 for each item. Keep answers brief.
Give the value in nM but do not write nM after it.

Param item = CO[C@H]1C[C@@H]2CC[C@@H](C)[C@@](O)(O2)C(=O)C(=O)N2CCCC[C@H]2C(=O)O[C@H]([C@H](C)C[C@@H]2CC[C@@H](OC(=O)C(C)(CO)CO)[C@H](OC)C2)CC(=O)[C@H](C)/C=C(\C)[C@@H](O)[C@@H](OC)C(=O)[C@H](C)C[C@H](C)/C=C/C=C/C=C/1C ; retrieve measured IC50.
0.495

What do you get for CC(=O)O[C@H]1C(=O)[C@@]2(C)[C@H]([C@H](OC(=O)c3ccccc3)[C@]3(O)C[C@H](OC(=O)[C@H](O)[C@@H](NC(=O)c4ccccc4)c4ccccc4)C(C)=C1C3(C)C)[C@]1(OC(C)=O)CO[C@@H]1C[C@@H]2O ?
21.9

What do you get for Cc1ccc(-c2c(C(=O)CCl)n(CCCO)c3ncnc(N)c23)cc1 ?
3940

What do you get for COc1cccc2c1C(=O)c1c(O)c3c(c(O)c1C2=O)C[C@@](O)(C(=O)CO)C[C@@H]3O[C@H]1C[C@H](N)[C@H](O)[C@H](C)O1 ?
230

----------
- Test system: REH;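 also: growth inhibition of REH cells determined with a cell viability read-out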
- experiment notes: cells
- Assay type: functional, cell-based, Homo sapiens
- measurement setup: reh
- Description: SANGER: Inhibition of human REH cell growth in a cell viability assay.
test readout: IC50 (nM)
Give the value in nM but do not write nM after it.

Param item = BLEOMYCIN ; retrieve measured IC50.
13.4

----------
- Test system: BB30-HNC;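 also: growth inhibition of the cultured cell line, read out by a cell viability assay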
- experiment notes: cells
- Format: functional, cell-based, Homo sapiens
- measurement setup: Homo sapiens, BB30-HNC
- Description: SANGER: Inhibition of human BB30-HNC cell growth in a cell viability assay.
Where a name gives a salt, the structure may show the parent alone.
Give measured IC50 for each item. Keep answers brief.

Param item = COc1cc(-c2nn([C@H]3CC[C@H](N4CCN(C(C)=O)CC4)CC3)c3ncnc(N)c23)ccc1NC(=O)c1cc2ccccc2n1C ; retrieve measured IC50.
874 nM

What do you get for COC1=CC(c2cc3ccccc3[nH]2)=N/C1=C\c1[nH]c(C)cc1C [OBATOCLAX MESYLATE] ?
< 62.5 nM

What do you get for OCCCNc1cc(-c2ccnc(Nc3cccc(Cl)c3)n2)ccn1 ?
52.5 nM

What do you get for Oc1ccc2ccccc2c1SSc1c(O)ccc2ccccc12 ?
> 32000 nM

What do you get for CCC/C=C/C=C/C(=O)O[C@H]1/C(=C/C(=O)OC)C[C@H]2C[C@H]([C@@H](C)O)OC(=O)C[C@H](O)C[C@@H]3C[C@H](OC(C)=O)C(C)(C)[C@](O)(C[C@@H]4C/C(=C/C(=O)OC)C[C@H](/C=C/C(C)(C)[C@]1(O)O2)O4)O3 ?
> 8 nM

What do you get for CC(C)CCN1c2nc(Nc3cc(F)c(O)c(F)c3)ncc2N(C)C(=O)C1C (configuration not stated) ?
> 5000 nM

What do you get for CC1(C)CNc2cc(NC(=O)c3cccnc3NCc3ccncc3)ccc21 ?
> 2000 nM

----------
- Tested on: SW872;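 also: growth inhibition of SW872 cells, read out by a viability assay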
- experiment notes: cells
- Assay type: functional, cell-based, Homo sapiens
- measurement setup: Homo sapiens, SW872
- Description: SANGER: Inhibition of human SW872 cell growth in a cell viability assay.
Where a name gives a salt, the structure may show the parent alone.
test readout: pIC50
Scale: negative log10 of molar concentration, which is what pIC50 denotes.

Param item = COC1=CC(c2cc3ccccc3[nH]2)=N/C1=C\c1[nH]c(C)cc1C [OBATOCLAX MESYLATE] ; retrieve measured pIC50.
6.79

What do you get for CC(=O)O[C@H]1C(=O)[C@@]2(C)[C@H]([C@H](OC(=O)c3ccccc3)[C@]3(O)C[C@H](OC(=O)[C@H](O)[C@@H](NC(=O)c4ccccc4)c4ccccc4)C(C)=C1C3(C)C)[C@]1(OC(C)=O)CO[C@@H]1C[C@@H]2O ?
7.38

What do you get for Cc1cc([N+](=O)[O-])ccc1NS(=O)(=O)c1cc(Cl)ccc1Cl ?
5.30

----------
- Test system: 697
- experiment notes: cells
- Assay type: functional, cell-based, Homo sapiens
- measurement setup: Homo sapiens
- Description: SANGER: Inhibition of human 697 cell growth in a cell viability assay.
Give measured IC50 for each item. Keep answers brief.
Give the value in nM but do not write nM after it.

Param item = CCN(CC)CCNC(=O)c1c(C)[nH]c(/C=C2\C(=O)Nc3ccc(F)cc32)c1C [SUNITINIB] ; retrieve measured IC50.
614

What do you get for COc1cc2ncn(-c3cc(OCc4ccccc4C(F)(F)F)c(C(N)=O)s3)c2cc1OC [GW843682X] ?
9.86

What do you get for CC[C@H](CO)Nc1nc(NCc2ccccc2)c2ncn(C(C)C)c2n1 [SELICICLIB] ?
12600

What do you get for N[C@@H](CSC(c1ccccc1)(c1ccccc1)c1ccccc1)C(=O)O [S-TRITYL-L-CYSTEINE] ?
328

----------
Give measured pIC50 for each item. Keep answers brief.
- System: NUGC-3;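 also: growth inhibition of human NUGC-3 cells, read out with a cell viability assay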
- experiment notes: cells
- Format: functional, cell-based, Homo sapiens
- measurement setup: Homo sapiens, NUGC-3
- Description: SANGER: Inhibition of human NUGC-3 cell growth in a cell viability assay.
Scale: negative log10 of molar concentration, which is what pIC50 denotes.

Param item = CC(C)c1ccccc1Cc1cc(C(=O)Nc2ccc(S(=O)(=O)c3ccccc3C(C)(C)C)cc2)c(O)c(O)c1O ; retrieve measured pIC50.
5.94

What do you get for COc1cccc2c1C(=O)c1c(O)c3c(c(O)c1C2=O)C[C@@](O)(C(=O)CO)C[C@@H]3O[C@H]1C[C@H](N)[C@H](O)[C@H](C)O1 ?
7.34

----------
- Tested on: KGN
- experiment notes: cells
- Format: functional, cell-based, Homo sapiens
- measurement setup: Homo sapiens, KGN
- Description: SANGER: Inhibition of human KGN cell growth in a cell viability assay.
Give measured IC50 for each item. Keep answers brief.
Give the value in µM but do not write µM after it.

Param item = CC(C)c1ccccc1Cc1cc(C(=O)Nc2ccc(S(=O)(=O)c3ccccc3C(C)(C)C)cc2)c(O)c(O)c1O ; retrieve measured IC50.
0.436

What do you get for COc1cc(N2CCN(C)CC2)ccc1Nc1ncc2c(n1)N(C)c1ccccc1C(=O)N2C ?
2.79

What do you get for COc1cc(-c2nn([C@H]3CC[C@H](N4CCN(C(C)=O)CC4)CC3)c3ncnc(N)c23)ccc1NC(=O)c1cc2ccccc2n1C ?
0.887

----------
- System: SCH;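 also: growth inhibition of human SCH cells, read out in a cell viability assay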
- experiment notes: cells
- Type: functional, cell-based, Homo sapiens
- measurement setup: Homo sapiens, SCH
- Description: SANGER: Inhibition of human SCH cell growth in a cell viability assay.
Give measured IC50 for each item. Keep answers brief.

Param item = CO[C@H]1C[C@@H]2CC[C@@H](C)[C@@](O)(O2)C(=O)C(=O)N2CCCC[C@H]2C(=O)O[C@H]([C@H](C)C[C@@H]2CC[C@@H](OC(=O)C(C)(CO)CO)[C@H](OC)C2)CC(=O)[C@H](C)/C=C(\C)[C@@H](O)[C@@H](OC)C(=O)[C@H](C)C[C@H](C)/C=C/C=C/C=C/1C [TEMSIROLIMUS] ; retrieve measured IC50.
> 0.2 µM

What do you get for CC[C@H](CO)Nc1nc(NCc2ccccc2)c2ncn(C(C)C)c2n1 [SELICICLIB] ?
> 16 µM

What do you get for C=C(c1ccc(C(=O)O)cc1)c1cc2c(cc1C)C(C)(C)CCC2(C)C [BEXAROTENE] ?
> 8 µM

What do you get for O=C(O)c1ccc(-c2c[nH]c3ncc(-c4ccccc4)cc23)cc1C1CCCC1 [GSK-650394] ?
> 16 µM

What do you get for OCCCNc1cc(-c2ccnc(Nc3cccc(Cl)c3)n2)ccn1 ?
> 0.256 µM

What do you get for COc1cc(-c2nn([C@H]3CC[C@H](N4CCN(C(C)=O)CC4)CC3)c3ncnc(N)c23)ccc1NC(=O)c1cc2ccccc2n1C ?
> 5.12 µM

What do you get for COc1cc(N2CCN(C)CC2)ccc1Nc1ncc2c(n1)N(C)c1ccccc1C(=O)N2C ?
> 8 µM

----------
- System: CHL-1
- experiment notes: cells
- Assay type: functional, cell-based, Homo sapiens
- measurement setup: Homo sapiens, CHL-1
- Description: SANGER: Inhibition of human CHL-1 cell growth in a cell viability assay.
Give measured IC50 for each item. Keep answers brief.

Param item = N#Cc1c(O)c2c(-c3ccc(-c4ccccc4O)cc3)csc2[nH]c1=O ; retrieve measured IC50.
> 1020 nM

What do you get for CC1(C)CNc2cc(NC(=O)c3cccnc3NCc3ccncc3)ccc21 ?
> 2000 nM

What do you get for Nc1ccn([C@@H]2O[C@H](CO)[C@@H](O)C2(F)F)c(=O)n1 ?
< 4 nM

What do you get for Cc1cc([N+](=O)[O-])ccc1NS(=O)(=O)c1cc(Cl)ccc1Cl ?
2180 nM

What do you get for Cc1cn(-c2cc(NC(=O)c3ccc(C)c(Nc4nccc(-c5cccnc5)n4)c3)cc(C(F)(F)F)c2)cn1 ?
> 2000 nM

----------
- Test system: SKG-IIIa
- experiment notes: cells
- Type: functional, cell-based, Homo sapiens
- measurement setup: Homo sapiens, SKG-IIIa
- Description: SANGER: Inhibition of human SKG-IIIa cell growth in a cell viability assay.
test readout: pIC50
Scale: negative log10 of molar concentration, which is what pIC50 denotes.

Param item = COc1cccc2c1C(=O)c1c(O)c3c(c(O)c1C2=O)C[C@@](O)(C(=O)CO)C[C@@H]3O[C@H]1C[C@H](N)[C@H](O)[C@H](C)O1 ; retrieve measured pIC50.
6.51
